assay: solvent given as SMILES; conditions: in ClCCl
Catalogue of emission maximum values

SMILES REPRESENTATION: COc1cccc(-n2c(-c3ccc(F)cc3)nc(C)c2C)c1
emission maximum [nm]: 368
//
SMILES REPRESENTATION: CCCCn1c2c(-c3ccc(N(c4ccccc4)c4ccccc4)cc3)cc(C#N)cc2c2cc(C#N)cc(-c3ccc(N(c4ccccc4)c4ccccc4)cc3)c21
emission maximum [nm]: 452
//
SMILES REPRESENTATION: N#Cc1ncc(-c2c3ccccc3c(-c3cnc(C#N)nc3)c3ccccc23)cn1
emission maximum [nm]: 464
//
SMILES REPRESENTATION: C(=C\c1nc(/C=C/c2ccc(N(c3ccccc3)c3ccccc3)cc2)cc(/C=C/c2ccc(N(c3ccccc3)c3ccccc3)cc2)n1)/c1ccccc1
emission maximum [nm]: 551
//
SMILES REPRESENTATION: CCCCN1\C(=C/C=C/C=C/C2=[N+](CCCC)c3ccc4ccccc4c3C2(C)C)C(C)(C)c2c1ccc1ccccc21
emission maximum [nm]: 713
//
SMILES REPRESENTATION: F[B-]1(F)n2c(c3cccc4cccc2c43)=Nc2sc3ccccc3[n+]21
emission maximum [nm]: 529
//
SMILES REPRESENTATION: Cc1cc(O)c(C(=O)/C=C/c2ccccc2O)c(=O)o1
emission maximum [nm]: 477
//
SMILES REPRESENTATION: CN(C)CCNc1ccc([N+](=O)[O-])cc1[N+](=O)[O-]
emission maximum [nm]: 393
//
SMILES REPRESENTATION: COC(=O)c1cc(=O)n(C)c2cc(-c3cc(OC)c(OC)c(OC)c3)sc12
emission maximum [nm]: 485

###

Catalogue of emission maximum values
test: solvent given as SMILES; settings: in CCO
EXPERIMENTAL ENDPOINT: emission maximum (nm)

COMPOUND: C[n+]1ccc(/C=C/c2ccc([O-])cc2)cc1
NUMERIC READOUT: 582
//
COMPOUND: C#Cc1ccc2ccc3oc(=O)cc(C)c3c2c1
NUMERIC READOUT: 403
//
COMPOUND: O=c1c2cc(F)c(N3CCOCC3)cc2sc2cc(N3CCOCC3)c(F)cc12
NUMERIC READOUT: 481
//
COMPOUND: Cc1c(C)n2c(COC(=O)c3ccccc3I)c(C)c(=O)n2c1=O
NUMERIC READOUT: 461
//
COMPOUND: O=P1(c2ccccc2)C2=C(c3ccccc31)S(=O)(=O)c1ccccc12 (stereo not drawn)
NUMERIC READOUT: 471
//
COMPOUND: CCOC(=O)c1cc(C(=O)OCC)c2cccc(OC)c2n1
NUMERIC READOUT: 526
//
COMPOUND: O=CC1=C(c2ccc(-c3cccs3)s2)CCC1
NUMERIC READOUT: 514
//
COMPOUND: CC1CC=C(c2ccc(-c3ccc(C#N)s3)s2)CC1 (stereo not drawn)
NUMERIC READOUT: 443
//
COMPOUND: CCCCN1C(=O)C(=C/C=C/C=C/C=C2N(CCCC)c3ccccc3N2CCCC)C(=O)N(CCCC)C1=S
NUMERIC READOUT: 685
//
COMPOUND: CC1(C)CC(=O)c2cc(F)cc(F)c2N1
NUMERIC READOUT: 492
//
COMPOUND: COC(=O)c1ccccc1-c1c2ccc(=[NH2+])cc-2oc2cc(N)ccc12
NUMERIC READOUT: 529
//
COMPOUND: Cc1c(COC(=O)c2ccccc2Cl)n2c(OCC(=O)c3ccccc3Cl)c(C)c(=O)n2c1=O
NUMERIC READOUT: 459
//
COMPOUND: O=C1c2cccc3cc4ccccc4c(c23)C(=O)N1Cc1ccccn1
NUMERIC READOUT: 500
//
COMPOUND: Cc1ccc2c(CC(=O)NN)coc2c1
NUMERIC READOUT: 397
//
COMPOUND: C=C(C)C(CN1C(=O)c2cccc3c2c(cc2nc(C)oc23)C1=O)OO (stereo not drawn)
NUMERIC READOUT: 412
//
COMPOUND: c1csc(-c2cnc(-c3cccs3)c3nonc23)c1
NUMERIC READOUT: 614
//
COMPOUND: CN(C)c1ccc(/C=C/c2cc[n+](CCCCCCCCCCCC[n+]3ccc(/C=C/c4ccc(N(C)C)cc4)cc3)cc2)cc1
NUMERIC READOUT: 593
//
COMPOUND: COC(=O)c1cc(=O)n(C)c2cc(-c3cc4c5c(c3)CCCN5CCC4)sc12
NUMERIC READOUT: 508
//
COMPOUND: Cc1ccccc1/C(C#N)=C/c1ccc(N(C)C)cc1
NUMERIC READOUT: 509
//
COMPOUND: O=C([O-])c1c(Cl)c(Cl)c(Cl)c(Cl)c1-c1c2cc(I)c(=O)c(I)c-2oc2c(I)c([O-])c(I)cc12
NUMERIC READOUT: 573
//
COMPOUND: N#Cc1c[nH]c2ccccc12
NUMERIC READOUT: 314
//
COMPOUND: CCOc1ccc2c(-c3nc(-c4cccc(C)c4)no3)cc(=O)oc2c1
NUMERIC READOUT: 465
//
COMPOUND: O=Cc1cc(O)c(C=O)cc1O
NUMERIC READOUT: 491

###

Catalogue of emission maximum values
experiment: solvent given as SMILES; conditions: in CC(C)O
EXPERIMENTAL ENDPOINT: emission maximum (nm)

SMILES REPRESENTATION: CN(C)c1ccc(/C=C/c2cc[n+](CCCCCCCCCCCC[n+]3ccc(/C=C/c4ccc(N(C)C)cc4)cc3)cc2)cc1
NUMERIC READOUT: 590

SMILES REPRESENTATION: CN(C)c1ccc2c(c1)C(=O)NC2=O
NUMERIC READOUT: 523

SMILES REPRESENTATION: COc1ccc(C(=O)/C=C2\C(=O)Nc3ccccc32)cc1
NUMERIC READOUT: 378

SMILES REPRESENTATION: COc1ccc(/C=C2\OC(=O)c3cc(N)ccc32)cc1
NUMERIC READOUT: 481.23

SMILES REPRESENTATION: O=C1c2ccc3c4ccc5c6c(ccc(c7ccc(c2c37)C(=O)N1c1ccncc1)c64)C(=O)N(c1ccncc1)C5=O
NUMERIC READOUT: 572

SMILES REPRESENTATION: CNc1ccc(/C=C/C#N)cc1
NUMERIC READOUT: 408

SMILES REPRESENTATION: COc1cc(/C=C/c2cc[n+](Cc3ccc(Br)cc3)cc2)ccc1O
NUMERIC READOUT: 559

SMILES REPRESENTATION: C[n+]1ccc(/C=C/c2ccc([O-])cc2)cc1
NUMERIC READOUT: 594

SMILES REPRESENTATION: Nc1ccc2c(c1)C(=O)c1ccc(N)cc1C2=O
NUMERIC READOUT: 616

SMILES REPRESENTATION: CC(=O)c1ccc(-c2nc3ccc(N(C)C)c(Cl)c3s2)cc1
NUMERIC READOUT: 585.02

SMILES REPRESENTATION: CN(C)C(=O)c1ccc(-c2nc3ccc(N(C)C)cc3s2)cc1
NUMERIC READOUT: 518

###

assay: solvent given as SMILES; conditions: in Cc1ccccc1
Catalogue of emission maximum values

COMPOUND: c1ccc(-c2cc(-c3nnc(-c4ccc(N5c6ccccc6Oc6ccccc65)cc4)o3)c(-c3ccccc3)c(-c3ccccc3)c2-c2ccccc2)cc1
emission maximum: 495 nm

COMPOUND: COc1ccc(/C=C/c2nc(/C=C/c3ccc(N(c4ccccc4)c4ccccc4)cc3)cc(/C=C/c3ccc(N(c4ccccc4)c4ccccc4)cc3)n2)cc1
emission maximum: 480 nm

COMPOUND: Cc1ccc(N2C(c3ccccc3[N-]S(=O)(=O)c3ccc(C)cc3)=[NH+]C(c3ccccc3)C2c2ccccc2)cc1 (stereo not given)
emission maximum: 499 nm

COMPOUND: COc1ccc(C#Cc2nc3ccccc3nc2-c2cn(C)c3ccccc23)cc1
emission maximum: 468 nm

COMPOUND: CC1=[N+]2C(=C(c3ccc(N(C)C)cc3)c3ccc(C)n3[B-]2(F)F)C=C1
emission maximum: 580 nm

COMPOUND: COc1ccc(-c2nnc(-c3cc(-c4nnc(-c5ccc(OC)cc5)o4)c(-n4c5ccccc5c5ccccc54)cc3-n3c4ccccc4c4ccccc43)o2)cc1
emission maximum: 428 nm

COMPOUND: Cc1c(-c2nc(-c3ccccc3)nc(-c3ccccc3)n2)ccc(-n2c3ccccc3c3cc4c(cc32)C2c3ccccc3C4c3ccccc32)c1C
emission maximum: 427 nm

COMPOUND: CC(C)(C)c1ccc(N(c2ccc(S(=O)(=O)c3ccc(S(=O)(=O)c4ccc(N(c5ccc(C(C)(C)C)cc5)c5ccccc5C(C)(C)C)cc4)cc3)cc2)c2ccccc2C(C)(C)C)cc1
emission maximum: 454 nm

COMPOUND: CN(C)c1ccc(/C=C/c2nc3c4ccccc4c4ccccc4c3[nH]2)cc1
emission maximum: 436 nm

COMPOUND: Cc1nn(-c2ccccc2)c2c1c(=O)oc1ccc(-n3c4ccccc4c4ccccc43)cc12
emission maximum: 412 nm

COMPOUND: CCn1c2ccccc2c2cc(C#Cc3cc(C#Cc4ccc5c(c4)c4ccccc4n5CC)nc(N4CCCCC4)n3)ccc21
emission maximum: 438 nm

COMPOUND: O=P1(c2ccccc2)C(c2ccc(N(c3ccccc3)c3ccccc3)cc2)=Cc2cc3ccccc3cc21 (stereo not given)
emission maximum: 478 nm

COMPOUND: O=C1/C(=C\c2ccc3oc4ccccc4c3c2)S(=O)(=O)c2ccccc21
emission maximum: 430 nm

COMPOUND: C(#Cc1cc2ccc3cccc4ccc(c1)c2c34)c1ccccc1
emission maximum: 399 nm

COMPOUND: CC(C)(C)c1ccc2c(c1)c1cc(C(C)(C)C)ccc1n2-c1ccc(-c2ccc3c(c2)C(=O)c2ccc(-c4ccc(-n5c6ccc(C(C)(C)C)cc6c6cc(C(C)(C)C)ccc65)cc4)cc2C3=O)cc1
emission maximum: 558 nm
